I'd appreciate it if you could supply PBM binding z-score values for the items below.
- System: RARg homodimer (NR concentration 270 nM)
- protocol-details: PBM binding z-score (relative to random genomic background probes); higher = stronger binding; sequences stand for … in GC…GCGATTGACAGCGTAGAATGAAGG
Answers are plain numbers.

INSERT INTO results (sequence_record, quantitative_readout) VALUES
  ('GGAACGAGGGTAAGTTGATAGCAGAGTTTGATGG', 0.437),
  ('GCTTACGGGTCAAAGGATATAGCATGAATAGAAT', 3.96),
  ('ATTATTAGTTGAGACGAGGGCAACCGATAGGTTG', 1.18),
  ('CTACCAAGGTGAACAAGGTCGTTGACTACTATTC', 1.67),
  ('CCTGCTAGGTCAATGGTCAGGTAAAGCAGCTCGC', 4.27);

Dear colleague, could you please provide PBM binding z-score for the sequences listed below?
1. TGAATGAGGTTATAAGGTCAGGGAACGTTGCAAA
2. AGTCAAAGTTCTCTAGGTAACGTAAGATTCAGCT
3. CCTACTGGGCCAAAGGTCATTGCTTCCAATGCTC
4. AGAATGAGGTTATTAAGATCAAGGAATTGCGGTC
5. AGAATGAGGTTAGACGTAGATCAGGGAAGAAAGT
6. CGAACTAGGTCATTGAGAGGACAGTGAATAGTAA

1: 4.21; 2: 0.523; 3: 4.3; 4: 0.86; 5: 0.859; 6: 4.96

// each sequence listed below needs its PBM binding z-score
1. CCTACTGGGCCAAAAAGGTCATTTATGCCGATAA
2. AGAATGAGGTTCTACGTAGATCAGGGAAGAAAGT
3. CTCGAATGGTCGTGCTCAGGTGAGTATACCAAAC
4. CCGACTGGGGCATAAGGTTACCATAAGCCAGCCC
5. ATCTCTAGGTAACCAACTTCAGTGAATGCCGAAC

3.43
0.0722
-0.12
1.17
0.26

* * *

What PBM binding z-score was measured for each of the following?
- System: RARa homodimer (NR concentration 270 nM)
- protocol-details: PBM binding z-score (relative to random genomic background probes); higher = stronger binding; sequences stand for … in GC…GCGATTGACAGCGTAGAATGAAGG
Give bare numbers.

INSERT INTO measurements (sequence_record, quantitative_readout) VALUES
  ('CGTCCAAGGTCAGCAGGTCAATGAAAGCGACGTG', 0.0185),
  ('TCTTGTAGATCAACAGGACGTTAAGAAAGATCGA', 0.262),
  ('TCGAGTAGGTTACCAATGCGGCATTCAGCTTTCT', -0.774),
  ('TCACATAGGTAATACAGGTGAAAGTCGGCATCTA', 0.821),
  ('ACAGGCAGGTGAGTGAAGGTAACTCAGCTGGACG', -0.662);

// next item, PBM binding z-score requested
Provide PBM binding z-score, recorded with RARa homodimer (NR concentration 270 nM), of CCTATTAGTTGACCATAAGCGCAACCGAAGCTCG
2.45

* * *

- Tested on: LXRb homodimer (NR concentration 270 nM)
- protocol-details: PBM binding z-score (relative to random genomic background probes); higher = stronger binding; sequences stand for … in GC…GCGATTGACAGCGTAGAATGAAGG
Using PBM binding z-score as the sorting value, the categories are lower bin: < 0.009; middle bin: ≥ 0.009 and < 0.5; upper bin: ≥ 0.5

Sort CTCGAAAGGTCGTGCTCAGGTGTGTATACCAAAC into one of the categories.
middle bin

Category of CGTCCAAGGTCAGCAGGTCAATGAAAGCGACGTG :
lower bin

# bin label for CTACCAAGGCGAACAAGGTCGTTGATTACTATTC
lower bin

The measurements presented in this section are drawn from the supplement of paper PMC6555819.
